Target: human TLR8 (Homo sapiens)
Construct: host or cells: HEK293 (HEK-BLUE-hTLR8)
Sequence (Q9NR97 27-1041): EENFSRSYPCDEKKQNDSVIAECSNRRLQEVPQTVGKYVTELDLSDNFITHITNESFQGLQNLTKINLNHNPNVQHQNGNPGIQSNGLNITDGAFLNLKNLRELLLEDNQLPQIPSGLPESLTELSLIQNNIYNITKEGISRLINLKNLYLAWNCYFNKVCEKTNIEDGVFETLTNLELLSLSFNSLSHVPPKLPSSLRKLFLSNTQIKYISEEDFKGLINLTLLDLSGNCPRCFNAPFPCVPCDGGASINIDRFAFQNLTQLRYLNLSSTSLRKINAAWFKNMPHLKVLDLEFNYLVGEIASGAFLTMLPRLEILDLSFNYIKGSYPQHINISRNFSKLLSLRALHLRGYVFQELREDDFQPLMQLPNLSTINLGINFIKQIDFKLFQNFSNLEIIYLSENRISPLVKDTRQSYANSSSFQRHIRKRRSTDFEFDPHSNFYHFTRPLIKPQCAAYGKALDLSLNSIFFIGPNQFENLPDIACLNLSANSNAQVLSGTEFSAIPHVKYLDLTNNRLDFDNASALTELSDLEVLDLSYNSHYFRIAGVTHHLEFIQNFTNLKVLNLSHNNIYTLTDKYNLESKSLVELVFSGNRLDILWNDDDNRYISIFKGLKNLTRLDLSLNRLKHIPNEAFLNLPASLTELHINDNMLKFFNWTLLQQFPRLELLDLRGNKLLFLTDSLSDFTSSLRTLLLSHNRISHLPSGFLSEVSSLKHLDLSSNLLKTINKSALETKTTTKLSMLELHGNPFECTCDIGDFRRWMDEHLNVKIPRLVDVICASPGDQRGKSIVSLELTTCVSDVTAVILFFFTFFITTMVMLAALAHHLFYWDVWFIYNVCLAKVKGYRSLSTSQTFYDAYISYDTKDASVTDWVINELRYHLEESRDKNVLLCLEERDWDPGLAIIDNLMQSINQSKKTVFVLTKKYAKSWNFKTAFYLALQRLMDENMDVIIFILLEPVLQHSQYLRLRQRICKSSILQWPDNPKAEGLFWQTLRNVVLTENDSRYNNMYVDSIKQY
Assay: TLR Activation and Specificity, HEK-BLUE-hTLR8 SEAP reporter cells
Format: cell-based
Settings: 16-20 hours, at least 2× vehicle control, tested 0.01-30 micromolar
Entries and their measured MEC to Produce TLR Activation, TLR 8 follow.
MEASUREMENT_LABEL: MEC to Produce TLR Activation, TLR 8 (µM)

chemical_smiles=CCCC[C@H](Cc1ccccc1)n1cnc2c(N)nc3ccccc3c21 measurement_label="MEC to Produce TLR Activation, TLR 8" measurement_units=µM comparative_sign== numeric_value=10
chemical_smiles=COC[C@H](Cc1ccccc1)n1cnc2c(N)nc3ccccc3c21 measurement_label="MEC to Produce TLR Activation, TLR 8" measurement_units=µM comparative_sign== numeric_value=10
chemical_smiles=CCOC[C@@H](Cc1ccccc1)n1cnc2c(N)nc3ccccc3c21 measurement_label="MEC to Produce TLR Activation, TLR 8" measurement_units=µM comparative_sign=> numeric_value=30
chemical_smiles=CCCCOc1ccc(C[C@@H](CCCC)n2cnc3c(N)nc4ccccc4c32)cc1 measurement_label="MEC to Produce TLR Activation, TLR 8" measurement_units=µM comparative_sign== numeric_value=10
chemical_smiles=CCOC[C@H](Cc1ccccc1)n1cnc2c(N)nc3ccccc3c21 measurement_label="MEC to Produce TLR Activation, TLR 8" measurement_units=µM comparative_sign== numeric_value=3.3

----------
Target: human TLR7 (Homo sapiens, UniProt Q9NYK1)
Construct: host or cells: HEK293 (HEK-BLUE-hTLR7)
Sequence (Q9NYK1 27-1049): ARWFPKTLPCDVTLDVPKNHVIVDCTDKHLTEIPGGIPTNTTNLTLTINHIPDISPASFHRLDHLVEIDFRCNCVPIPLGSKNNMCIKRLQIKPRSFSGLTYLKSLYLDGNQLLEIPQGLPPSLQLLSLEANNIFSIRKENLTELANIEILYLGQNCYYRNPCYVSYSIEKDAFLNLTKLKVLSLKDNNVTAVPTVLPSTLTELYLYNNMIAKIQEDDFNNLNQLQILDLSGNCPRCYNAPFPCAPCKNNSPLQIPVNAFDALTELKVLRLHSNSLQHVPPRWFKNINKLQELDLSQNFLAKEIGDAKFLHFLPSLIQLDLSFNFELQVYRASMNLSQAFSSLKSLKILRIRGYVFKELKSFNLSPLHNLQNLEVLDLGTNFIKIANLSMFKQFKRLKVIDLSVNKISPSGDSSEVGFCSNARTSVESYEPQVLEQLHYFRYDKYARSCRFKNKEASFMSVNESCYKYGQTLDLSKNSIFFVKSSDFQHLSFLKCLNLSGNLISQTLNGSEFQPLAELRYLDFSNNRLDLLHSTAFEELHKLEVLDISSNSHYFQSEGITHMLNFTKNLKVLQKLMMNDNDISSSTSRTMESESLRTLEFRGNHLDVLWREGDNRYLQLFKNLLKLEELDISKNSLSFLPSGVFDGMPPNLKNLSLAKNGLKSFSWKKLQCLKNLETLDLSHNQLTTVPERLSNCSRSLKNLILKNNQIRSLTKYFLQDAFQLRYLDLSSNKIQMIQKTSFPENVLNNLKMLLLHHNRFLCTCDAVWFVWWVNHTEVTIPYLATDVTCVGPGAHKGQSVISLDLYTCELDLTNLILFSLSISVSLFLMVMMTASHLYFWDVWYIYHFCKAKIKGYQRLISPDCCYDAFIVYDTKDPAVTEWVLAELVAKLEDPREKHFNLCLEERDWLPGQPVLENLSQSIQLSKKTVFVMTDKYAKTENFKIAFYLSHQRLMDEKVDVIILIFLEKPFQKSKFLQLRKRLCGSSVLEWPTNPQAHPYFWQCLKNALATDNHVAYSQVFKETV
Assay: TLR Activation and Specificity, HEK-BLUE-hTLR7 SEAP reporter cells
Format: cell-based
Conditions: 16-20 hours, at least 2× vehicle control, tested 0.01-30 micromolar
MEASUREMENT_LABEL: MEC to Produce TLR Activation, TLR 7 (µM)

molecule=COC[C@H](Cc1ccccc1)n1cnc2c(N)nc3ccccc3c21 measurement_label="MEC to Produce TLR Activation, TLR 7" measurement_units=µM comparative_sign=≤ numeric_value=0.01
molecule=CCCCOc1ccc(C[C@@H](CCCC)n2cnc3c(N)nc4ccccc4c32)cc1 measurement_label="MEC to Produce TLR Activation, TLR 7" measurement_units=µM comparative_sign=≤ numeric_value=0.01
molecule=CCCC[C@H](Cc1ccccc1)n1cnc2c(N)nc3ccccc3c21 measurement_label="MEC to Produce TLR Activation, TLR 7" measurement_units=µM comparative_sign=≤ numeric_value=0.01
molecule="Nc1nc2ccccc2c2c1ncn2CCc1ccccc1 [Comparative Example 1, reference compound]" measurement_label="MEC to Produce TLR Activation, TLR 7" measurement_units=µM comparative_sign== numeric_value=1.1
molecule=COC[C@@H](Cc1ccccc1)n1cnc2c(N)nc3ccccc3c21 measurement_label="MEC to Produce TLR Activation, TLR 7" measurement_units=µM comparative_sign== numeric_value=1.1
molecule=C[C@H](Cc1ccccc1)n1cnc2c(N)nc3ccccc3c21 measurement_label="MEC to Produce TLR Activation, TLR 7" measurement_units=µM comparative_sign== numeric_value=0.37
molecule=CCOC[C@@H](Cc1ccccc1)n1cnc2c(N)nc3ccccc3c21 measurement_label="MEC to Produce TLR Activation, TLR 7" measurement_units=µM comparative_sign== numeric_value=1.1
molecule=CCOC[C@H](Cc1ccccc1)n1cnc2c(N)nc3ccccc3c21 measurement_label="MEC to Produce TLR Activation, TLR 7" measurement_units=µM comparative_sign=≤ numeric_value=0.01

----------
Target: human TLR8 (Homo sapiens)
Construct: host or cells: HEK293 (HEK-BLUE-hTLR8)
Test: TLR Activation and Specificity, HEK-BLUE-hTLR8 SEAP reporter cells
Format: cell-based
Settings: 16-20 hours, at least 2× vehicle control, tested 0.01-30 micromolar
MEASUREMENT_LABEL: MEC to Produce TLR Activation, TLR 8

molecule="Nc1nc2ccccc2c2c1ncn2CCc1ccccc1 [Comparative Example 1, reference compound]" measurement_label="MEC to Produce TLR Activation, TLR 8" result=">30 µM"
molecule="COC[C@@H](Cc1ccccc1)n1cnc2c(N)nc3ccccc3c21 [Example 3]" measurement_label="MEC to Produce TLR Activation, TLR 8" result=">30 µM"
molecule="C[C@H](Cc1ccccc1)n1cnc2c(N)nc3ccccc3c21 [Example 1]" measurement_label="MEC to Produce TLR Activation, TLR 8" result=">30 µM"

----------
Test system: Human peripheral blood mononuclear cells (PBMC)
Experiment: Cytokine Induction in Human Cells (PBMC), minimum effective concentration
Assay type: cell-based
Settings: 21-24 hours, multiplex bead assay, lowest concentration giving at least 2× negative control, tested 0.01-30 micromolar
Entries and their measured MEC to Induce Cytokine, TNF-alpha follow.
MEASUREMENT_LABEL: MEC to Induce Cytokine, TNF-alpha (µM)

compound=CCCC[C@H](Cc1ccccc1)n1cnc2c(N)nc3ccccc3c21 comparative_sign=≤ numeric_value=0.01
compound=CCCCOc1ccc(C[C@@H](CCCC)n2cnc3c(N)nc4ccccc4c32)cc1 comparative_sign=≤ numeric_value=0.01
compound=C[C@H](Cc1ccccc1)n1cnc2c(N)nc3ccccc3c21 comparative_sign== numeric_value=0.12
compound=COC[C@H](Cc1ccccc1)n1cnc2c(N)nc3ccccc3c21 comparative_sign=≤ numeric_value=0.01
compound=CCOC[C@@H](Cc1ccccc1)n1cnc2c(N)nc3ccccc3c21 comparative_sign== numeric_value=0.37
compound="Nc1nc2ccccc2c2c1ncn2CCc1ccccc1 [Comparative Example 1, reference compound]" comparative_sign== numeric_value=1.1
compound=COC[C@@H](Cc1ccccc1)n1cnc2c(N)nc3ccccc3c21 comparative_sign== numeric_value=1.1
compound=CCOC[C@H](Cc1ccccc1)n1cnc2c(N)nc3ccccc3c21 comparative_sign=≤ numeric_value=0.01
